Cited source for all entries: ChEMBL document CHEMBL1641604

System: HeLa
Assay: Selectivity ratio for induction of p21 promoter gene in human HeLa cells to induction of klf2 promoter gene in human A204 cells at 3 uM
Assay type: functional
readoutName: Activity
Answer using only a numeral; do not append any unit.

Prompt: Could you tell me which Activity is on file for CC(C)c1ccc(-c2ccc(NC(=O)C(NCCN3CCCCC3)c3ccc(/C=C/C(=O)Nc4ccccc4N)cc3)cc2)cc1 (stereo unspecified) ?
Response: 1.8

Prompt: GET /values?readout=Activity&item= Nc1ccccc1NC(=O)/C=C/c1ccc(C(NCCN2CCOCC2)C(=O)Nc2ccc(C(F)(F)F)cc2)cc1 (stereo unspecified)
Response: 1.4

Prompt: Reported Activity, molecule COCCNC(C(=O)Nc1ccc(C(F)(F)F)cc1)c1ccc(/C=C/C(=O)Nc2ccccc2N)cc1 (stereo unspecified) : ____
Response: 0.8

Prompt: Param item = Nc1ccccc1NC(=O)/C=C/c1ccc(C(NCCCN2CCOCC2)C(=O)Nc2ccc(OC(F)(F)F)cc2)cc1 (stereo unspecified) ; retrieve measured Activity.
Response: 2.2

Prompt: Return reported Activity; argument: CC(CNC(C(=O)Nc1ccc(-c2ccc(C3CC3)cc2)cc1)c1ccc(/C=C/C(=O)Nc2ccccc2N)cc1)N1CCOCC1 (stereo unspecified)
Response: 2.2

Prompt: I am curious: what Activity value has been reported for Nc1ccccc1NC(=O)/C=C/c1ccc(C(NCCCN2CCOCC2)C(=O)Nc2ccc(C(F)(F)F)cc2)cc1 (stereo unspecified) ?
Response: 1.9

Prompt: Could you share which Activity value was measured for Nc1ccccc1NC(=O)/C=C/c1ccc(C(NCc2ccco2)C(=O)Nc2ccc(C(F)(F)F)cc2)cc1 (stereo unspecified) ?
Response: 0.6

Prompt: Which Activity value belongs to Nc1ccccc1NC(=O)/C=C/c1ccc(C(NCCN2C[C@@H]3C[C@H]2CO3)C(=O)Nc2ccc(OC(F)(F)F)cc2)cc1 (stereo partly specified) ?
Response: 2.6

Prompt: Endpoint output: Activity of Nc1ccccc1NC(=O)/C=C/c1ccc(C(NCCN2CCSCC2)C(=O)Nc2ccc(C(F)(F)F)cc2)cc1 (stereo unspecified) . Value?
Response: 0.9

Prompt: What value of Activity has been reported for the following molecule? N#Cc1ccc(-c2ccc(NC(=O)C(NCCN3CCCCC3)c3ccc(/C=C/C(=O)Nc4ccccc4N)cc3)cc2)cc1 (stereo unspecified)
Response: 1.8

Prompt: Entry under review: CN(C)CCNC(C(=O)Nc1ccc(C(F)(F)F)cc1)c1ccc(/C=C/C(=O)Nc2ccccc2N)cc1 (stereo unspecified) . Reported Activity?
Response: 2

====

Answer each item with its documented Activity.
Test system: HeLa
Assay: Induction of p21 promoter gene in human HeLa cells assessed as percent induction activity at 10 uM relative to SNDX-275
Format: functional
Output spec: scalar in %, unitless text.

Prompt: Quick one: Activity for Nc1ccccc1NC(=O)/C=C/c1ccc(C(NCCCN2CCOCC2)C(=O)Nc2ccc(OC(F)(F)F)cc2)cc1 (stereo unspecified) ?
Response: 144

Prompt: What measured Activity goes with Nc1ccccc1NC(=O)/C=C/c1ccc(C(NCCN2CCOCC2)C(=O)Nc2ccc(C(F)(F)F)cc2)cc1 (stereo unspecified) ?
Response: 116

Prompt: Find the recorded Activity belonging to CC(CNC(C(=O)Nc1ccc(OC(F)(F)F)cc1)c1ccc(/C=C/C(=O)Nc2ccccc2N)cc1)N1CCOCC1 (stereo unspecified) and report it.
Response: 104

Prompt: Value lookup for Activity; key = CN(CCN1CCOCC1)C(C(=O)Nc1ccc(C(F)(F)F)cc1)c1ccc(/C=C/C(=O)Nc2ccccc2N)cc1 (stereo unspecified)
Response: 121

Prompt: Would you mind telling me what Activity value was observed for CC(CNC(C(=O)Nc1ccc(-c2ccc(C3CC3)cc2)cc1)c1ccc(/C=C/C(=O)Nc2ccccc2N)cc1)N1CCOCC1 (stereo unspecified) ?
Response: 196

Prompt: Entry under review: COCCNC(C(=O)Nc1ccc(C(F)(F)F)cc1)c1ccc(/C=C/C(=O)Nc2ccccc2N)cc1 (stereo unspecified) . Reported Activity?
Response: 64

Prompt: Activity for Nc1ccccc1NC(=O)/C=C/c1ccc(C(NCCN2C[C@@H]3C[C@H]2CO3)C(=O)Nc2ccc(OC(F)(F)F)cc2)cc1 (stereo partly specified) ?
Response: 152

Prompt: Using the record for Nc1ccccc1NC(=O)/C=C/c1ccc(C(NCCCN2CCOCC2)C(=O)Nc2ccc(C(F)(F)F)cc2)cc1 (stereo unspecified) , report its Activity.
Response: 130

Prompt: Given the entry Nc1ccccc1NC(=O)/C=C/c1ccc(C(NCCC2CCOCC2)C(=O)Nc2ccc(C(F)(F)F)cc2)cc1 (stereo unspecified) , report its measured Activity.
Response: 64

Prompt: Record request: Activity value, item Nc1ccccc1NC(=O)/C=C/c1ccc(C(NCCN2CCCCC2)C(=O)Nc2ccc(-c3ccc(C4CC4)cc3)cc2)cc1 (stereo unspecified)
Response: 187

Prompt: Field request: Activity | item: CN(C)CCNC(C(=O)Nc1ccc(OC(F)(F)F)cc1)c1ccc(/C=C/C(=O)Nc2ccccc2N)cc1 (stereo unspecified)
Response: 182

Prompt: Fill blank: measured Activity of the compound CN(CCN1CCOCC1)C(C(=O)Nc1ccc(OC(F)(F)F)cc1)c1ccc(/C=C/C(=O)Nc2ccccc2N)cc1 (stereo unspecified) is ____.
Response: 109

Prompt: Would you kindly share the measured Activity for Nc1ccccc1NC(=O)/C=C/c1ccc(C(NCCCN2CCOCC2)C(=O)Nc2ccc(C3CC3)cc2)cc1 (stereo unspecified) ?
Response: 178

Prompt: Which Activity reading was recorded for the compound Nc1ccccc1NC(=O)/C=C/c1ccc(C(NCc2ccco2)C(=O)Nc2ccc(C(F)(F)F)cc2)cc1 (stereo unspecified) ?
Response: 36

Prompt: Can you look up the measured Activity of Nc1ccccc1NC(=O)/C=C/c1ccc(C(NCCN2CCSCC2)C(=O)Nc2ccc(C(F)(F)F)cc2)cc1 (stereo unspecified) for me?
Response: 95

Prompt: Return reported Activity; argument: CC(C)c1ccc(-c2ccc(NC(=O)C(NCCN3CCCCC3)c3ccc(/C=C/C(=O)Nc4ccccc4N)cc3)cc2)cc1 (stereo unspecified)
Response: 130

====

Test system: A204
Assay: Induction of klf2 promoter gene in human A204 cells assessed as percent induction activity at 10 uM relative to SNDX-275
Assay type: functional
readoutName: Activity (%)
Report only the number, with the unit % understood.

Prompt: Look up Activity with A204 for this compound: CN(C)CCNC(C(=O)Nc1ccc(OC(F)(F)F)cc1)c1ccc(/C=C/C(=O)Nc2ccccc2N)cc1 (stereo not drawn)
Response: 74

Prompt: Requested read-out Activity, target or system A204, entry CC(CNC(C(=O)Nc1ccc(OC(F)(F)F)cc1)c1ccc(/C=C/C(=O)Nc2ccccc2N)cc1)N1CCOCC1 (stereo not drawn)
Response: 44

Prompt: Kindly state the measured Activity obtained for CN(C)C(C(=O)Nc1ccc(C(F)(F)F)cc1)c1ccc(/C=C/C(=O)Nc2ccccc2N)cc1 (stereo not drawn) with A204.
Response: 33

====

Test system: A204
Assay: Antiproliferative activity against human A204 cells assessed as growth at 3 uM after 24 hrs
Format: functional
Details: A204, 24 h, read-out: Activity
readoutName: growth at 3 µM (%)
Number in %, nothing else.

Prompt: Look up growth at 3 µM for this molecule: Nc1ccccc1NC(=O)/C=C/c1ccc(C(NCCN2C[C@@H]3C[C@H]2CO3)C(=O)Nc2ccc(OC(F)(F)F)cc2)cc1 (some centres undefined)
Response: 97

Prompt: Quick check: growth at 3 µM of Nc1ccccc1NC(=O)/C=C/c1ccc(C(NCCN2CCCCC2)C(=O)Nc2ccc(OC(F)(F)F)cc2)cc1 (centres undefined) ?
Response: 95

Prompt: Returns the measured growth at 3 µM for the input molecule. Input: Nc1ccccc1NC(=O)/C=C/c1ccc(C(NCCN2CCCCC2)C(=O)Nc2ccc(-c3ccc(C4CC4)cc3)cc2)cc1 (centres undefined)
Response: 93

Prompt: What measured growth at 3 µM goes with CC(CNC(C(=O)Nc1ccc(OC(F)(F)F)cc1)c1ccc(/C=C/C(=O)Nc2ccccc2N)cc1)N1CCOCC1 (centres undefined) ?
Response: 97

====

Kindly state IC50 for each of the entries shown.
Molecular target: Histone deacetylase 2 (Homo sapiens, UniProt Q92769)
Sequence (Q92769 whole entry): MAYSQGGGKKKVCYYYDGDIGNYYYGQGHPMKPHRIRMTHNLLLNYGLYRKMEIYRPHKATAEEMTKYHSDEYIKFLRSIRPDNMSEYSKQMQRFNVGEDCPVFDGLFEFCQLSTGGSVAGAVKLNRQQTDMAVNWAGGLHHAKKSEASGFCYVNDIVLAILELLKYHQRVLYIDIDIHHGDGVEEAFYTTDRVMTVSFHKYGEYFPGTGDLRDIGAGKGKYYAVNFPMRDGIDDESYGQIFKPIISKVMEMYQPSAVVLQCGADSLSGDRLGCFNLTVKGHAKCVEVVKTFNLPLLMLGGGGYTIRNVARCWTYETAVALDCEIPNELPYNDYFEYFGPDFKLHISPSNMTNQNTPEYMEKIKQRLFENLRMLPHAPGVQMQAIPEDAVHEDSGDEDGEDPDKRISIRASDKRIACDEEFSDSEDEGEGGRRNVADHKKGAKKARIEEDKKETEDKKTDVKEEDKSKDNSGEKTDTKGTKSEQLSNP
Report only the number, with the unit µM understood.

Prompt: # query: IC50 of entry Nc1ccccc1NC(=O)/C=C/c1ccc(C(NCCN2CCOCC2)C(=O)Nc2ccc(C(F)(F)F)cc2)cc1 (configuration not stated)
Response: 0.29

Prompt: Need IC50 of Nc1ccccc1NC(=O)/C=C/c1ccc(C(NCCN2CCCCC2)C(=O)Nc2ccc(-c3ccc(C4CC4)cc3)cc2)cc1 (configuration not stated) , thanks.
Response: 0.24

====

Exercise: for every item that follows, state its recorded Activity.
Tested on: HeLa
Assay: Selectivity ratio for induction of p21 promoter gene in human HeLa cells to induction of klf2 promoter gene in human A204 cells at 3 uM
Assay type: functional
Lab note: write the figure by itself, no unit.

Prompt: Need Activity of Nc1ccccc1NC(=O)/C=C/c1ccc(C(NCCN2CCCCC2)C(=O)Nc2ccc(-c3ccc(C4CC4)cc3)cc2)cc1 (stereo unspecified) , thanks.
Response: 2.2

Prompt: Reported Activity, compound Nc1ccccc1NC(=O)/C=C/c1ccc(C(C(=O)Nc2ccc(C3CC3)cc2)N2CCCC2)cc1 (stereo unspecified) : ____
Response: 1.7

Prompt: I have this compound here, Nc1ccccc1NC(=O)/C=C/c1ccc(C(NCCN2CCCCC2)C(=O)Nc2ccc(OC(F)(F)F)cc2)cc1 (stereo unspecified) , and I need its recorded Activity.
Response: 2.9

Prompt: Query: Activity; subject: CN(CCN1CCOCC1)C(C(=O)Nc1ccc(C(F)(F)F)cc1)c1ccc(/C=C/C(=O)Nc2ccccc2N)cc1 (stereo unspecified)
Response: 1

Prompt: Give the measured Activity of Nc1ccccc1NC(=O)/C=C/c1ccc(C(NCCN2CCCCC2)C(=O)Nc2ccc(C(F)(F)F)cc2)cc1 (stereo unspecified) .
Response: 2.4

Prompt: Item Nc1ccccc1NC(=O)/C=C/c1ccc(C(NCCN2CCCCC2)C(=O)Nc2ccc(-c3ccc(C(F)(F)F)cc3F)cc2)cc1 (stereo unspecified) has what recorded Activity?
Response: 1.7

Prompt: Can you share its Activity? I mean this compound: CN(CCN1CCOCC1)C(C(=O)Nc1ccc(OC(F)(F)F)cc1)c1ccc(/C=C/C(=O)Nc2ccccc2N)cc1 (stereo unspecified)
Response: 1.6

Prompt: Fill in: Activity of Nc1ccccc1NC(=O)/C=C/c1ccc(C(NCCC2CCOCC2)C(=O)Nc2ccc(C(F)(F)F)cc2)cc1 (stereo unspecified) is ___
Response: 1

Prompt: Entry under review: Nc1ccccc1NC(=O)/C=C/c1ccc(C(NCCCN2CCOCC2)C(=O)Nc2ccc(C3CC3)cc2)cc1 (stereo unspecified) . Reported Activity?
Response: 1.7

Prompt: Using the record for Nc1ccccc1NC(=O)/C=C/c1ccc(C(NCCC2(O)CCOCC2)C(=O)Nc2ccc(C(F)(F)F)cc2)cc1 (stereo unspecified) , report its Activity.
Response: 0.9

Prompt: Need Activity of CN(C)C(C(=O)Nc1ccc(C(F)(F)F)cc1)c1ccc(/C=C/C(=O)Nc2ccccc2N)cc1 (stereo unspecified) , thanks.
Response: 0.5

Prompt: For the compound shown here, Nc1ccccc1NC(=O)/C=C/c1ccc(C(C(=O)Nc2ccc(C(F)(F)F)cc2)N2CCCC2)cc1 (stereo unspecified) , give the reported Activity.
Response: 1.4

Prompt: Given the compound Nc1ccccc1NC(=O)/C=C/c1ccc(C(NCCN2CCCCC2)C(=O)Nc2ccc(-c3ccc(C(F)(F)F)c(F)c3)cc2)cc1 (stereo unspecified) , what is its reported Activity?
Response: 2.4

Prompt: What value of Activity has been reported for the following compound? CN(C)CCNC(C(=O)Nc1ccc(OC(F)(F)F)cc1)c1ccc(/C=C/C(=O)Nc2ccccc2N)cc1 (stereo unspecified)
Response: 1.8

Prompt: I have this compound here, Nc1ccccc1NC(=O)/C=C/c1ccc(C(N)C(=O)Nc2ccc(C(F)(F)F)cc2)cc1 (stereo unspecified) , and I need its recorded Activity.
Response: 1

Prompt: Requested read-out: Activity. Entry: CC(CNC(C(=O)Nc1ccc(OC(F)(F)F)cc1)c1ccc(/C=C/C(=O)Nc2ccccc2N)cc1)N1CCOCC1 (stereo unspecified)
Response: 2.2
